These data points were gathered from patent US20220315554A1.

List of Kd values.
Biological target: Human recombinant FAP (Homo sapiens, UniProt Q12884)
Sequence (Q12884 whole entry): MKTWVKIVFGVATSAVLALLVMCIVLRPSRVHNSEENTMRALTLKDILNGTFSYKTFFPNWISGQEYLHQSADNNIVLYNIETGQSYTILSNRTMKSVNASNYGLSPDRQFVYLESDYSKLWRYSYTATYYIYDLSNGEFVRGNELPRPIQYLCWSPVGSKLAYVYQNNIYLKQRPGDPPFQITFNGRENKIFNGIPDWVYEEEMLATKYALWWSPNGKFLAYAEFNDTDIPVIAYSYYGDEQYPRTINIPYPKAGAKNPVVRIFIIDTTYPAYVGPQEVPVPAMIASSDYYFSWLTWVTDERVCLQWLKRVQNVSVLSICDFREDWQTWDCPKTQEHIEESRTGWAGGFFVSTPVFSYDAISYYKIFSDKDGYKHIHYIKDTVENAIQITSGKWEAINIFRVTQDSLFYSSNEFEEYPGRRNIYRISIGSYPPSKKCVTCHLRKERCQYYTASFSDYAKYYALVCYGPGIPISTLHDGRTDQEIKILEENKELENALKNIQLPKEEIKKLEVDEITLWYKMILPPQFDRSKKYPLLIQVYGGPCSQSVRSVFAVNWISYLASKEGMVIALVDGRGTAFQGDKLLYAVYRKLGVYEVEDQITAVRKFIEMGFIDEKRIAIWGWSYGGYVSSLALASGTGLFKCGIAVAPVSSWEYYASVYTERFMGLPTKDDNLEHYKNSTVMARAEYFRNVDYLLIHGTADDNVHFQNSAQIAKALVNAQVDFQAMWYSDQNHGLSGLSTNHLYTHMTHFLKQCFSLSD
Assay: Surface plasmon resonance (Biacore) assay
Numbered stars: 1 amine (or outer) side, 2 acyl side, 3 side chain; on linkers, the order of the positions; unused ones are H or OH. Bridge positions count the residues as written; N and C are the ends. Square brackets hold non-standard residues; d marks the D form. Peptide text beside a SMILES is read from it. * marks the point of attachment. mXylylene = c1cc(C[*:1])cc(C[*:2])c1; 4Amb = NCc1ccc(C(=O)O)cc1; Hexanoyl = CCCCCC(=O)*

Worked examples, 2 compounds total:
Prompt: Any idea what Kd was measured for CCCCCC(=O)N[C@H]1CSCc2cc(CSCCNC(=O)CN3CCN(CC(=O)O)CCN(CC(=O)O)CCN(CC(=O)O)CC3)cc(c2)CSC[C@@H](C(=O)N[C@H](CC(=O)O)Cc2ccccc2)NC(=O)[C@H](Cc2ccccc2)NC(=O)[C@H](CCC(N)=O)NC(=O)[C@H]([C@@H](C)O)NC(=O)[C@@H]2CCCN2C(=O)[C@@H]2CCCN2C1 [3BP-3660] ?
Completion: < 0.01 µM

Prompt: Any idea what Kd was measured for CCCCCC(=O)N[C@H]1CSCc2cc(CSCCNC(=O)CN3CCN4CCN5CCN(CC3)CC(=O)[O][In]([O]C(=O)C4)[O]C(=O)C5)cc(c2)CSC[C@@H](C(=O)N(C)CC(=O)O)NC(=O)[C@H](Cc2ccccc2)NC(=O)[C@H](CCC(N)=O)NC(=O)[C@H]([C@@H](C)O)NC(=O)[C@@H]2CCCN2C(=O)[C@@H]2CCCN2C1=O [3BP-3715] ?
Completion: < 0.01 µM

Please find the next compound below.
Prompt: Any idea what Kd was measured for CCCCCC(=O)N[C@H]1CSCc2cccc(c2)CSC[C@@H](C(=O)N[C@@H](CC(=O)O)C(=O)NCc2ccc(C(=O)N[C@@H](CCCNC(=N)N)C(N)=O)cc2)NC(=O)[C@H](Cc2ccccc2)NC(=O)[C@H](CCC(=O)O)NC(=O)[C@H]([C@@H](C)O)NC(=O)[C@@H]2CCCN2C(=O)[C@@H]2CCCN2C1=O [3BP-3301] (Hexanoyl-CPPTEFCD[4Amb]R-NH2; linker 1-7 via mXylylene) ?
Completion: < 0.01 µM
